- Tested on: MOLM1 and UCSD/AML1 (averaged)
- assay-comment: cell viability relative to DMSO control (POC); higher = less growth inhibition
- conditions: 1 µM; 72 h
Hit rate of the full screen: of about 3,000 compounds, about 45 (2%) showed an effect of 50% or more. Only a selection was taken, and strong results are over-represented in it overall.
// reported cell viability for each item listed
Write down the numeric answer in % and omit the unit.

The examples below pair each entry with its known result.
[
  {
    "compound": "Cc1cc(C)c(NC(=O)Cn2c(=O)cc(C(=O)N3CCc4ccccc4C3)c3ccccc32)c(C)c1",
    "experimental-system": "MOLM1 and UCSD/AML1 (averaged)",
    "parameter": "cell viability",
    "measurement-units": "%",
    "observed-result": 100
  },
  {
    "compound": "COc1ccc2c(c1)c(CC(=O)NCCSc1ccccc1)c(C)n2C(=O)c1ccc(Cl)cc1",
    "experimental-system": "MOLM1 and UCSD/AML1 (averaged)",
    "parameter": "cell viability",
    "measurement-units": "%",
    "observed-result": 98.5
  },
  {
    "compound": "Cc1ccccc1C(=O)OCC1CCCN2CCCCC12.O.O.O.O.O.O.O=[N+]([O-])O.O=[N+]([O-])O.[Co] (centres undefined)",
    "experimental-system": "MOLM1 and UCSD/AML1 (averaged)",
    "parameter": "cell viability",
    "measurement-units": "%",
    "observed-result": 104
  },
  {
    "compound": "Cc1ccc(C(=O)N2N=C(c3c(-c4ccccc4)c4cc(Br)ccc4[nH]c3=O)CC2c2ccccc2)cc1 (centres undefined)",
    "experimental-system": "MOLM1 and UCSD/AML1 (averaged)",
    "parameter": "cell viability",
    "measurement-units": "%",
    "observed-result": 100
  },
  {
    "compound": "C=CCN(C(=O)CSc1nc2ccccc2c(=O)[nH]1)c1ccccc1",
    "experimental-system": "MOLM1 and UCSD/AML1 (averaged)",
    "parameter": "cell viability",
    "measurement-units": "%",
    "observed-result": 88.4
  }
]

Now consider the entry below.
// cell viability lookup, key: Cc1ccc(-n2c(SCc3cn4ccccc4n3)nc3c(=O)[nH]cnc32)cc1
98.3
